This listing pairs compounds with measured VPS4B ATPase (% DMSO).
target: VPS4B (Homo sapiens); assay: VPS4B ATPase activity, EnzChek Phosphate assay; format: biochemical; set-up: His tag (pET28a vector-encoded) (N); made in house; host or cells: Escherichia coli BL21(DE3); details: screened at 5 µM; mean ± S.D., Supplemental Table 2
Sequence (O75351 whole entry): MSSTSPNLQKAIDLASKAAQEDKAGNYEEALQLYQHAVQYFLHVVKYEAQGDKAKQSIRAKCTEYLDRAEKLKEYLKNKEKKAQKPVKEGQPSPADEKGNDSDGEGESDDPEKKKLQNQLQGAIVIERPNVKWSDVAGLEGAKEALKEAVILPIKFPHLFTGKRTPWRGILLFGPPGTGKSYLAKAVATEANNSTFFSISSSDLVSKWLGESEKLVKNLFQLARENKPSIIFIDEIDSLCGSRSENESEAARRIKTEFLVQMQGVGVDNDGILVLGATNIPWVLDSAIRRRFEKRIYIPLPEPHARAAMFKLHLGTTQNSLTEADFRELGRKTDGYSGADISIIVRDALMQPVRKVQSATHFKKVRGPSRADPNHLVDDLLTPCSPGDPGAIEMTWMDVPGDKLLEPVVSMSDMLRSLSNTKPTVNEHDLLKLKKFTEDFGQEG
Your answer should be a plain number; it is taken to be in % DMSO.

Enquiry: Entry COc1cccc(CNc2nc(NCc3ccccc3)c3cccc(OC)c3n2)c1 has what VPS4B ATPase (% DMSO)?
Return: 51.50

Enquiry: Now consider COc1cccc2c(NCc3ccccc3)nc(Nc3ccc4ncsc4c3)nc12 .
Return: 51.27

Enquiry: Now consider COC(=O)c1ccc2ccn(-c3nc(NCc4ccccc4)c4cccc(OC)c4n3)c2c1 .
Return: 82.10
